Cited source: patent US10065990B2

System: lncap (prostate cancer cells)
protocol notes: MTT cancer cell growth inhibition
Format: cell-based
condition details: Homo sapiens, LNCaP, 72 h, lncap cells, MTT, 72 hours incubation; read-out: GI50 lnca
Excerpt: MTT assay principle is yellow MTT can penetrate membrane into the cell, succinic dehydrogenase of the mitochondria in living cells can make exogenous MTT reduction of insoluble in water of blue-violet acicular formazan for crystallization and deposition in the cell, crystallization can be dissolved dimethyl sulfoxide (DMSO) solution, detected its absorbance at 490 nm/570 nm wavelength by enzyme-linked immunosorbent assay, which can reflect the number of cells. […] e) 570 nm readings. […]
assay readout: GI50 (nM)

compound: C/C=C1\NC(=O)c2cc(SC)cc(n2)CNC(=O)C[C@@H](/C=C/CCSC(=O)CCCCCCC)OC(=O)[C@H](C)NC1=O [Compound 181]
value units: nM
reported: 80
//
compound: C=C1NC(=O)c2nc(ccc2SC)CNC(=O)C[C@@H](/C=C/CCSC(C)=O)OC(=O)[C@H](C)NC1=O [Compound 210]
value units: nM
reported: 50
//
compound: C/C=C1\NC(=O)c2cc(SC)cc(n2)CNC(=O)C[C@@H](/C=C/CCSC(C)=O)OC(=O)[C@H](CCCCN)NC1=O [Compound 193]
value units: nM
reported: 80
//
compound: C/C=C1\NC(=O)c2cc(SC)cc(n2)CNC(=O)C[C@@H](/C=C/CCSC(=O)CCC)OC(=O)[C@H](C(C)C)NC1=O [Compound 160]
value units: nM
reported: 50

(I) C/C=C1\NC(=O)c2nc(ccc2SC)CNC(=O)C[C@@H](/C=C/CCSC(=O)CCCCCC)OC(=O)[C@H](C(C)C)NC1=O [Compound 150]
(II) C/C=C1\NC(=O)c2nc(ccc2SC)CNC(=O)C[C@@H](/C=C/CCS)OC(=O)[C@H](CC)NC1=O [Compound 229]
**Q:** Quick check, higher GI50 between I and II ? Mark your selection by writing its label.
**A:** I
(I: 60 nM, II: 30 nM)

* * *

target system: HDAC7 (Homo sapiens)
Sequence (Q8WUI4 whole entry): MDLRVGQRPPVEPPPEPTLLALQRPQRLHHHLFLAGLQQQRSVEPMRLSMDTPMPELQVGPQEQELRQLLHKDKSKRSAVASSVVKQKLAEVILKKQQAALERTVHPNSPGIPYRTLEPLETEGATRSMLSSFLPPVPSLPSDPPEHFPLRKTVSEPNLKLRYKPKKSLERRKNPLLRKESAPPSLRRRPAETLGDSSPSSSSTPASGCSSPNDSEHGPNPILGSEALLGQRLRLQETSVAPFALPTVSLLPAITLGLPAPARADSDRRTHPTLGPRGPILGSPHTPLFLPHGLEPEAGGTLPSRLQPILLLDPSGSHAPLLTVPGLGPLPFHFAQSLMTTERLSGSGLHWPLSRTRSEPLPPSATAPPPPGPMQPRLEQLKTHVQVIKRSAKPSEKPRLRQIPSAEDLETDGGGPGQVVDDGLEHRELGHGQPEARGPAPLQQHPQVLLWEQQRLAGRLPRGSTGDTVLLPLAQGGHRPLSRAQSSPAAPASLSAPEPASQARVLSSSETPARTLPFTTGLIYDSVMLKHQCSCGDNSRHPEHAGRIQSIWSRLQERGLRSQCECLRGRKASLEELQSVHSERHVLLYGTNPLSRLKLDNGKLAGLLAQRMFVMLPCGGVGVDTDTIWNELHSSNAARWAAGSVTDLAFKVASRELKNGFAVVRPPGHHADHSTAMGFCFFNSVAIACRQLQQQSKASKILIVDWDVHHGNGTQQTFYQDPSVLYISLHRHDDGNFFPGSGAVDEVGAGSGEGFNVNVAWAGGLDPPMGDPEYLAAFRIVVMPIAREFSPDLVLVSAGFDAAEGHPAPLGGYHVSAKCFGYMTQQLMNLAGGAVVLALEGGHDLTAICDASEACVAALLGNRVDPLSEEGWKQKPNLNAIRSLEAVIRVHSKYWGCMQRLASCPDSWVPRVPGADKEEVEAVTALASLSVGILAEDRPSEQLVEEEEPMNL
protocol notes: HDAC biochemical activity measurement (fluorescent substrate deacetylation);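 note: fluorogenic deacetylation assay using acetyl-lysine substrate at 20 µM, enzyme and compound incubated 30 min at 37 °C, then developer added, fluorescence read at 360/460 nm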
assay readout: IC50 (μM) HDAC7

Check out these entries, answers already filled in.
compound: C/C=C1\NC(=O)c2ccc(SCC)c(n2)CNC(=O)C[C@@H](/C=C/CCSC(=O)CCCCCCC)OC(=O)[C@H](C(C)C)NC1=O [Compound 249]
reported: no activity

compound: C/C=C1\NC(=O)c2nc(ccc2SCC)CNC(=O)C[C@@H](/C=C/CCSC(=O)CCCCCC)OC(=O)[C@H](C(C)C)NC1=O [Compound 250]
reported: no activity

compound: C/C=C1\NC(=O)c2ccc(SCC)c(n2)CNC(=O)C[C@@H](/C=C/CCSC(=O)CCCCCC)OC(=O)[C@H](C(C)C)NC1=O [Compound 252]
reported: no activity

compound: C/C=C1\NC(=O)c2ccc(SCC)c(n2)CNC(=O)C[C@@H](/C=C/CCSC(=O)CCCCC)OC(=O)[C@H](C(C)C)NC1=O [Compound 255]
reported: no activity

compound: C/C=C1\NC(=O)c2cc(SCC)cc(n2)CNC(=O)C[C@@H](/C=C/CCSC(=O)CCCCC)OC(=O)[C@H](C(C)C)NC1=O [Compound 254]
reported: no activity

compound: C/C=C1\NC(=O)c2cc(SCC)cc(n2)CNC(=O)C[C@@H](/C=C/CCSC(=O)CCCCCCC)OC(=O)[C@H](C(C)C)NC1=O [Compound 248]
reported: no activity

compound: C/C=C1\NC(=O)c2nc(ccc2SCC)CNC(=O)C[C@@H](/C=C/CCSC(=O)CCCCC)OC(=O)[C@H](C(C)C)NC1=O [Compound 253]
reported: no activity

Turning now to a further compound:
**Q:** Sample C/C=C1\NC(=O)c2cc(SCC)cc(n2)CNC(=O)C[C@@H](/C=C/CCSC(=O)CCCCCC)OC(=O)[C@H](C(C)C)NC1=O [Compound 251] — what was its IC50 (μM) HDAC7?
**A:** no activity
